# tested.system: Protein AF-9 (Homo sapiens)
# protocol.summary: inhibitors of AF9 AHD–DOT1L interaction, dose response, biochemical, AlphaLISA, MBP-tagged AHD, biotinylated peptide (AID 1794801)
# condition.parameters: MBP-AF9 AHD and biotin-DOT1L peptide
Calls of active or inactive are those of the source.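 The calls were made as follows: active = compounds that disrupt AF9 binding to the DOT1L peptide with an IC50 under 30 µM; inactive = the rest.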
Outcome field: choose from active, inactive

// known answers, use as guide
O=C(NCC1CCNCC1)c1cc2cc(-c3ccc(N4CCCC4)cc3)ccc2[nH]1 ... active
O=C(NCC1CCNCC1)c1cc2ccc(-c3ccc(N4CCCCC4)cc3)cc2[nH]1 ... active
NCc1ccc(-c2ccc3cc(C(=O)NCC4CCNCC4)oc3c2)cc1 ... inactive
O=C(NCC1CCNCC1)c1c[nH]c2cc(-c3ccc(N4CCCC4)cc3)ccc12 ... active
O=C(NCC1CCNCC1)c1cc2ccc(Nc3ccc(N4CCCCC4)cc3)cc2o1 ... active
O=C(NCC1CCNCC1)c1cc2cc(-c3ccc(N4CCCCC4)cc3)ccc2s1 ... active
O=C(NCC1CCNCC1)c1cc2ccc(-c3ccc(N4CCCC4)cc3)cc2[nH]1 ... active
O=C(NCC1CCNCC1)c1cc2ccc(-c3ccc(N4CCCC4)cc3)cc2s1 ... active
O=C(NCC1CCNCC1)c1cc2cc(-c3cn[nH]c3)ccc2[nH]1 ... inactive

Ask: Fill in: this test's call for O=C(NCC1CCNCC1)c1cc2cc(-c3ccc(N4CCCCC4)cc3)ccc2[nH]1 is ___
Reply: active
